All values here come from ChEMBL document CHEMBL1152504.

So I've got a bunch of substances here, and I need their IC50 values.
PROTOCOL SUMMARY: Inhibition of Feline immunodeficiency virus Shizuoka envelope glycoprotein gp40 assessed as inhibition of HR1-HR2 interaction after 1.5 hrs by ELISA
Quick note: give the figure in µM, leave out the unit.

Fill blank: measured IC50 of the substance "H-LEEWYKKTEELQKKFEEIIKKIEENNKKGEEGLKK-OH" is ____.
0.0197

Same lookup for "H-LEEWYKKTEELQKKFEEIIKKIEENNKKVEEGLKK-OH" , please.
0.115

Same lookup for "H-LGEWYNQTKELQQKFYEIIMNIEQNNVQVKKGLQQ-OH" , please.
6.31

Same lookup for "H-LRDWYNNTQQLQKKFYEIIYDIEQNNVQGKQGLQQ-OH" , please.
2.51

Same lookup for "H-LGEWYNQTKDLQQKFYEIIMDIEQNNVQGKKGIQQ-OH" , please.
6.31

Same lookup for "H-LEEWYKKTEELQKKFEEIIKKIEENSKKGEEGIKK-OH" , please.
0.203
